Every entry's value here was drawn from patent US8691824B2.

Target: KMO mouse enzyme (Mus musculus, UniProt Q91WN4)
Construct: KMO enzyme prepared at Evotec from mouse liver (4-6 weeks old) via mitochondria isolation; from tissue; host or cells: mouse liver (4-6 weeks old), mitochondria isolation
Sequence (Q91WN4 whole entry): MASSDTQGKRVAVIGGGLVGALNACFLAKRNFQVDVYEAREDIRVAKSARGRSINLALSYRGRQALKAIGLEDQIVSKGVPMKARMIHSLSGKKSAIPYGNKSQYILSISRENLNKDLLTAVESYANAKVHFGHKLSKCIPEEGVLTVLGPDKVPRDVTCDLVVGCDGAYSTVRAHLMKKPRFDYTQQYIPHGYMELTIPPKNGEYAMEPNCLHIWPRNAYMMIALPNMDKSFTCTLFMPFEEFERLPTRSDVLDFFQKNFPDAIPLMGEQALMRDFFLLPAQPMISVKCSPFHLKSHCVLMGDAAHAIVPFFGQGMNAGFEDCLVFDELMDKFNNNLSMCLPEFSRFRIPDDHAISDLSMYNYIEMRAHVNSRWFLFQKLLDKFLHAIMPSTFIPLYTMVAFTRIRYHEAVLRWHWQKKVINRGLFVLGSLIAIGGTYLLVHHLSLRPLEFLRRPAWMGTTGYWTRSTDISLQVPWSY
Experiment: L-Kynurenine hydroxylation to 3OH-KYN by LC/MS, mouse liver mitochondrial KMO
Assay type: biochemical
Conditions: compound at 10 μM, read-out: INH.Mouse @ 10 μM
value.type: inhibition at 10 µM (%)
Give bare numbers, in %.

compound: COC(=O)CC1CC(c2ccc(Cl)c(Cl)c2)=NO1 (stereo not drawn)
target.system: KMO mouse enzyme (Mus musculus, UniProt Q91WN4)
reported: 88.4
//
compound: O=C(CC1CON=C1c1ccc(Cl)c(Cl)c1)Nc1cncnc1 (stereo not drawn)
target.system: KMO mouse enzyme (Mus musculus, UniProt Q91WN4)
reported: 82.7
//
compound: COC(=O)Cc1cc(-c2ccc(Cl)c(Cl)c2)no1
target.system: KMO mouse enzyme (Mus musculus, UniProt Q91WN4)
reported: 66.4

Provide the reported inhibition at 10 µM of each entry below, same order.
1. O=C(O)CC1CON=C1c1cccc(Cl)c1 (stereo not drawn)
2. CCOC(=O)Cc1cc(-c2ccc(Cl)c(Cl)c2)no1
3. O=C(O)CC1CON=C1c1ccc(Cl)c(Cl)c1 (stereo not drawn)
4. NC(=O)CC1CON=C1c1ccc(Cl)c(Cl)c1 (stereo not drawn)

1: 106; 2: 60.8; 3: 101; 4: 60.4

Provide the reported inhibition at 10 µM of each entry below, same order.
1. CC1ON=C(c2ccc(Cl)c(Cl)c2)C1CC(=O)O (stereo not drawn)
2. O=C(O)Cc1cc(-c2ccc(Cl)c(Cl)c2)no1
3. Cc1ncc(NC(=O)CC2CON=C2c2ccc(Cl)c(Cl)c2)cn1 (stereo not drawn)
4. O=C(O)CC1CC(c2ccc(Cl)c(Cl)c2)=NO1 (stereo not drawn)
5. Cc1cc(NC(=O)CC2CON=C2c2ccc(Cl)c(Cl)c2)on1 (stereo not drawn)

1. 84.5
2. 74.5
3. 81.2
4. 93.3
5. 64

Provide the reported inhibition at 10 µM of each entry below, same order.
1. COC(=O)CC1CON=C1c1ccc(Cl)c(Cl)c1 (stereo not drawn)
2. O=C(CC1CON=C1c1ccc(Cl)c(Cl)c1)Nc1cccnc1 (stereo not drawn)
3. O=C(O)Cc1conc1-c1ccc(Cl)c(Cl)c1

102
77.2
74.7
